B1: KCNA3 (parent)
chain: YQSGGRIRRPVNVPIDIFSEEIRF

variants of: B1; experiment: protein stability index of a GFP-peptide fusion (GPS, HEK-293T) (PSI 1-6); higher = more stable; conditions: c terminus: a fixed tail appended;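 also: lentivirally expressed fusions sorted by FACS into six bins by GFP to DsRed ratio, PSI derived from sequencing read proportions per bin multiplied by bin number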
The reader will find reported protein stability index values listed item by item below.
I'd appreciate a reply containing only the number, no unit.

# example entries with known answers
Mutation: R9V
Reading: 1.41
//
Mutation: S3A
Reading: 2.82
//
Mutation: R9A
Reading: 2.45
//
Mutation: P10Y
Reading: 1.76
//
Mutation: G4S
Reading: 3.01
//
Mutation: E20H
Reading: 2.04

Let us examine a further case.
Please give the measured protein stability index for this variant: V13H
2.19
